# reported FACS fluorescence; entries follow
# target.system: T1, CLDN6 endogenously expressed by human cancer cell lines (ARK2, OVCA429) (human, UniProt P56747 1-220)
# T1 construct: Untagged endogenous protein; also called Endogenous CLDN6+
# T1 sequence: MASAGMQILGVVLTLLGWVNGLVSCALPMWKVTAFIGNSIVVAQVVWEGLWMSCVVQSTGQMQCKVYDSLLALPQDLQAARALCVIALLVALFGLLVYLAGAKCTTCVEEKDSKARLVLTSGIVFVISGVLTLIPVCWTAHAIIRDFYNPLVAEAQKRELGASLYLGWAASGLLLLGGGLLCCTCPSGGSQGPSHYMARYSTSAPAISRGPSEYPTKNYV
# method.summary: FACS, 0.3 µg Ab, ARK2 cells
Please respond with just the number, no unit label.

binder	FACS fluorescence
AB18-6 (antibody, V domains shown, also called Humanized AB 18-6) VH: QVQLVQSGAEVKKPGASVKISCKASGYSFTGYNMNWVRQAPGQGLEWIGNIDPYYGGSTYAQKFQGRATLTVDTSTSTAYMELSSLRSEDTAVYYCARERSGYVFSAMDYWGQGTLVTVSS VL: DIVMTQSPDSLAVSLGERVTMNCKSSQSVLFSSNQKNYLAWYQQKPGQPPKLLIYWASTRESGVPDRFSGSGSGTDFTLTISSVQAEDVAVYYCHQYLSSRTFGQGTKLEIK	1390
AB4-4 (antibody, V domains shown, also called Humanized AB 4-4) VH: QVQLVQSGAEVKKPGASVKMSCKASGYTFTSYTMHWIRQAPGQGLEWIGYINPSSTYTHYAQKFQGRATLTADTSTSTAYMELSSLRSEDTAVYYCSRGELGGFAYWGQGTLVTVSS VL: DVVMTQSPLSLPVTLGQPASISCRSSQSLVHSDGNTYLNWYQQRPGQSPRLLIYKVSNRFSGVPDRFSGSGSGTDFTLKISRVEAEDVGVYYCSQSTHVPYTFGQGTKLEIK	1050
AB4-chim (antibody, V domains shown, 'chim' is the pre-humanized form (parental variable regions); also called pre-humanized (chimeric) form of AB4) VH: QVQLQQSGAELARPGASVKMSCKASGYTFTSYTMHWIKQRPGQGQEWIGYINPSSTYTHYIKKFKDKATLTADKSSSTAYMQLRSLTSEDSAVYYCSRGELGGFAYWGQGTLVTVSA VL: DVVMTQTPLSLPVSLGDQASISCRSSQSLVHSDGNTYLNWYLQKPGQSPKLLIYKVSNRFSGVPDRFSGSGSGTDFTLKIRRVEAEDLGVYFCSQSTHVPYTFGGGTKLEIK	19100

Please find the next binder below.
Value of FACS fluorescence reported for the binder AB1-7 (antibody, V domains shown, Humanized; also called Humanized AB 1-7) VH: QVQLVQSGAEVKKPGASVKMSCKASGYTFTTYTMHWVRQAPGQGLEWIGFINPSSGYTDYAQKFQGRVTLTADTSTSTVYMELSSLRSEDTAVYYCANGDYYVAYWGQGTLVTVSS VL: DIQLTQSPSSLSASVGDRVTMTCTASSSVSSTYFHWYQQKPGKAPKLLIYSTSNLASGVPSRFSGSGSGTDYTLTISSMQPEDAATYYCHQYHRSPLTFGQGTKLEIK is 4440
